- System: S. cerevisiae SKN7-toxicity growth rescue, plate reader
- protocol-summary: Yeast SKN7 toxicity growth rescue counterscreen, Saccharomyces cerevisiae, plate reader, dose confirmatory (AID 624258);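 note: growth read after three days of incubation at 30 °C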
measured-quantity: AC40

Fc1ccc(CCNC(=S)Nc2ccc(F)c(Cl)c2)cc1 : 3700 nM
COc1cccc(C(=O)N/N=C(/c2ccccc2)c2ccccn2)c1 : 3840 nM
CC(C)(C)C(=O)C(Oc1ccc(Cl)cc1)n1cncn1 (stereo unspecified) : 2020 nM
O=S(=O)(NCC1COc2ccccc2O1)c1ccc2ccccc2c1 (stereo unspecified) : 8680 nM
COc1cc2c(c(OC)c1OC)-c1ccc(O)c(=O)cc1[C@@H](N)CC2 : 936 nM

Alright, here's another compound for you.
Query: I am curious: what AC40 value has been reported for `CC(C)(C)c1ccc(-n2nc(C#N)c(Cl)cc2=O)cc1` ?
Response: 292 nM

---

- Tested on: S. cerevisiae SKN7-toxicity growth rescue, plate reader
- protocol-summary: Yeast SKN7 toxicity growth rescue counterscreen, Saccharomyces cerevisiae, plate reader, dose confirmatory (AID 624258);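 note: growth read after three days of incubation at 30 °C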
measured-quantity: AC40

Some solved entries appear below for comparison.
CSC(=S)N/N=C/c1ccccc1 : 3.19 µM
Cc1ccccc1N1CCN(C2=NC(=O)/C(=C\c3cccs3)S2)CC1 : 4.83 µM
COc1ccc2c(c1)[C@H]1[C@H](CO2)[C@H](c2ccccc2)[C@]2(C)C(=O)Nc3ccc(Cl)cc3C(=O)N12 : 17.2 µM
O=C(Oc1cccc(C(=S)N2CCOCC2)c1)c1ccc([N+](=O)[O-])cc1[N+](=O)[O-] : 16.4 µM
O=C1c2ccccc2NC(c2ccc(-c3cccc([N+](=O)[O-])c3)o2)N1O (stereo not given) : 4.74 µM

Provide AC40 for all items below, preserving their order.
1. O=C(N/N=C/c1sc(N2CCOCC2)nc1-c1ccccc1)c1ccccc1O
2. O=C(C=Cc1cccc(O)c1)c1ccccc1O
3. COc1ccc(C(c2c(O)ccc3ccccc23)N2CCOCC2)c(OC)c1 (stereo not given)
4. CO/N=C/c1ccc(Oc2ccc([N+](=O)[O-])cc2[N+](=O)[O-])c(OC)c1
5. Cc1oc2c(c1C(=O)c1ccc(Cl)cc1)C(=O)C(=O)c1ccccc1-2

Response:
3.04 µM
1.43 µM
2.35 µM
18.5 µM
1.27 µM

---

Consider the following molecules; for each one, report its AC40.
- System: S. cerevisiae SKN7-toxicity growth rescue, plate reader
- protocol-summary: Yeast SKN7 toxicity growth rescue counterscreen, Saccharomyces cerevisiae, plate reader, dose confirmatory (AID 624258);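 note: growth read after three days of incubation at 30 °C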

# count of solved cases: 3
CCCCCCCCNC(=O)/C(C#N)=C/c1ccccc1[N+](=O)[O-] : 3.17 µM
C[C@H](O)[C@H]1CC[C@H]2[C@@H]3CCC4=CC(=O)CC[C@]4(C)[C@H]3CC[C@]12C : 2.05 µM
CCn1c(=O)oc2cc(NC(=O)CCl)ccc21 : 18.2 µM

Required: AC40, one value per molecule below.
1. O=C(/C=C/c1ccccc1)c1cc(Br)ccc(=O)c1O
2. COc1ccccc1CNC(=O)CSc1ccc(-c2ccccn2)nn1
3. COc1ccc(CNc2ncnc3sccc23)cc1
4. Cc1n[nH]c(C)c1N=Nc1ccc(Br)cc1

Response:
2.08 µM
10.3 µM
14.6 µM
1.76 µM

---

- Test system: S. cerevisiae SKN7-toxicity growth rescue, plate reader
- protocol-summary: Yeast SKN7 toxicity growth rescue counterscreen, Saccharomyces cerevisiae, plate reader, dose confirmatory (AID 624258);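 note: growth read after three days of incubation at 30 °C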
Give measured AC40 for each item. Keep answers brief.

Illustrative cases are given below, each with its answer.
O=c1c(Cl)c(Cl)cnn1Cc1nnc(-c2ccc(Cl)cc2)o1 : 7.97 µM
CCOc1ccc(-n2c(O)c(/C=N/NC(=O)C3COc4ccccc4O3)c3ccccc3c2=O)cc1 (stereo unspecified) : 2.18 µM
Cc1ccc(NC(=O)c2cc(N3C(=O)C=CC3=O)ccc2Cl)cc1C : 0.342 µM
c1ccc(Cn2cc(-c3cccnc3)cn2)cc1 : 1.46 µM

# return AC40 for each item in the list
1. CCOC(=O)C1=C(Cc2ccc(OC)cc2)C(=O)c2ccccc2C1=O
2. O=[N+]([O-])c1cc(Cl)cc(/C=N/NC(=S)Nc2ccc(S(=O)(=O)N3CCOCC3)cc2)c1O

Response:
2.67 µM
2.22 µM

---

- System: S. cerevisiae SKN7-toxicity growth rescue, plate reader
- protocol-summary: Yeast SKN7 toxicity growth rescue counterscreen, Saccharomyces cerevisiae, plate reader, dose confirmatory (AID 624258); call rule not given here;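 note: growth read after three days of incubation at 30 °C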
Lab note: assign the record to one of Y for active, N for inactive

Previously resolved entries follow.
CCOC(=O)c1c(C)oc2c1C(=O)c1ccccc1C2=O : Y
O=c1[nH][nH]cc1C=Nc1ccccc1O : Y
C=CCN(CC=C)C(=S)NC(=O)c1ccc(OC)c(Br)c1 : Y
O=C(Nc1cccnc1)c1ccc2ccccc2c1O : Y
COc1ccc(N=N/C(=C\O)C(=O)c2cccs2)cc1 : Y
O=C1C=C(Nc2cccnc2)c2ccccc2C1=O : Y

Pending compound:
Query: Give the logged outcome of this assay for the following compound: `Oc1ccccc1-c1nnc(SCCN2CCOCC2)n1Cc1ccccc1`
Response: Y

---

- Tested on: S. cerevisiae SKN7-toxicity growth rescue, plate reader
- protocol-summary: Yeast SKN7 toxicity growth rescue counterscreen, Saccharomyces cerevisiae, plate reader, dose confirmatory (AID 624258);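 note: growth read after three days of incubation at 30 °C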
measured-quantity: AC40

These solved cases illustrate the format of a correct answer.
CCCCC(=O)NC(c1ccc(OC)c(OC)c1)c1ccc2cccnc2c1O (stereo not given) : 1 µM
COc1ccc(NC(=O)/C(Cl)=C(/Cl)S(=O)(=O)Cc2ccc(C)cc2)cn1 : 1.24 µM
CN(C1=C(NC(=O)c2ccc(Cl)cc2)C(=O)c2ccccc2C1=O)c1ccccc1 : 4.87 µM

Each molecule below has a recorded value; state its AC40.
1. CC(C)CN(C(=O)c1cccc(S(=O)(=O)N2CCN(Cc3ccccc3)CC2)c1)C1CCS(=O)(=O)C1 (stereo not given)
2. CC(NC(=S)NC1CCC(C(C)(C)C)CC1)c1ccccc1 (stereo not given)
3. N#C/C(=C\Nc1ccccc1O)c1nc2ccccc2o1

Response:
1: 8.01 µM; 2: 6.16 µM; 3: 1.12 µM

The following molecules each have a reported value; give each one's AC40.
1. c1ccc(Nc2cccc(Nc3ccccc3)c2)cc1
2. O=C(NNC(=O)c1cc(Cl)ccc1O)c1ccc(NS(=O)(=O)c2cccs2)cc1

Response:
["0.766 µM", "5.75 µM"]

For each listed entry, give its AC40.
1. COc1cc2c(cc1/C=C/[N+](=O)[O-])OCO2
2. N=c1c2c(-c3ccccc3)c(-c3ccccc3)n(Cc3ccco3)c2ncn1CCCn1ccnc1

Response:
6.54 µM
2.92 µM

---

Provide the reported AC40 of each item.
- System: S. cerevisiae SKN7-toxicity growth rescue, plate reader
- protocol-summary: Yeast SKN7 toxicity growth rescue counterscreen, Saccharomyces cerevisiae, plate reader, dose confirmatory (AID 624258);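 note: growth read after three days of incubation at 30 °C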

Worked cases, answers included:
O=C(O/N=C(\c1ccccc1)c1ccncc1)c1ccccc1Cl : 9.26 µM
COc1ccc2c(n1)Sc1nc3ccccc3nc1N2 : 0.649 µM
CCOC(=O)CSC1=NC(=O)/C(=C\c2ccc(Cl)cc2)S1 : 6.09 µM
Nc1c(Cl)ncnc1N/N=C/c1ccc2ccccc2n1 : 4.34 µM

Okay, here is my list. What is AC40 for each of these?
1. O=C(CCc1ccccc1)NNC(=S)NC(=O)c1ccccc1
2. CCN(CC)c1ccc(/C=N/NC(=O)c2c(Cl)cnn2C)c(O)c1

Response:
["0.923 µM", "0.878 µM"]

---

- Test system: S. cerevisiae SKN7-toxicity growth rescue, plate reader
- protocol-summary: Yeast SKN7 toxicity growth rescue counterscreen, Saccharomyces cerevisiae, plate reader, dose confirmatory (AID 624258);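 note: growth read after three days of incubation at 30 °C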
Give measured AC40 for each item. Keep answers brief.

S=c1[nH]nc(-c2ccco2)n1/N=C/C(Cl)=C/c1ccccc1 : 10.8 µM
CCS(=O)(=O)c1ccc(N=Nc2ccc(O)c3ncccc23)c(OC)c1 : 3.56 µM
Cc1nn(CCC(N)=S)c2nc(-c3cccs3)cc(C(F)(F)F)c12 : 14.1 µM
COc1cc(OC)c(-c2c3cc(O)c(=O)cc-3oc3cc(O)c(O)cc23)cc1OC : 1.57 µM
O/C(=C\c1nc2ccccc2nc1/C=C(\O)c1ccccc1)c1ccccc1 : 4.59 µM

# return AC40 for each item in the list
1. O=C(CSc1ccc(-c2ccccn2)nn1)NC1CCCCC1
2. Cc1cc(C(=O)N/N=C/c2ccc(O)c(O)c2O)c(C)n1-c1ccccc1

Response:
1. 16.1 µM
2. 1.36 µM

---

- Test system: S. cerevisiae SKN7-toxicity growth rescue, plate reader
- protocol-summary: Yeast SKN7 toxicity growth rescue counterscreen, Saccharomyces cerevisiae, plate reader, dose confirmatory (AID 624258);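 note: growth read after three days of incubation at 30 °C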
Activity calls are given as the source filed them. No rule for the calls is given here.
Respond with a class label; see active, inactive

Query: What is the recorded call for this compound in the test? `Oc1ccc(-c2nc3ccccc3s2)c(O)c1`
Response: active

Query: Could you kindly confirm the outcome this assay logged for `Oc1cc(Nc2ccccc2)cc2cccnc12` ?
Response: active

Query: What outcome does the record of this test show for `Cc1ccc(NC2(c3nnnn3-c3c(C)cccc3C)CCCCC2)cc1` ?
Response: inactive

Query: Dear colleague, could you share the recorded outcome for CC1S/C(=C(\C#N)C(=O)NCc2ccco2)N(Cc2ccco2)C1=O (stereo unspecified) when you have a moment?
Response: inactive

Query: Kindly provide the recorded test outcome for the following compound: `COc1cccc(-n2nc(C#N)c(Cl)cc2=O)c1`
Response: active

Query: Could you kindly confirm the outcome this assay logged for `Cc1[nH]n(-c2ccccc2)c(=O)c1/C=N/Nc1nncc(-c2ccccc2)n1` ?
Response: active

Query: # lookup: test call for `CCNc1nc(N)nc(-c2cc(Cl)ccc2O)n1`
Response: active

Query: Kindly provide the recorded test outcome for the following compound: `CN1CCN(C2CCN(c3ccc(Nc4nnc(Cl)c(Nc5ccccc5S(C)(=O)=O)n4)c(OC(CF)CF)c3)CC2)CC1`
Response: active
